- subject_of_test: KRAS G12D (Homo sapiens, UniProt P01116, G12D)
- Sequence (P01116 1-188 isoform P01116-2 G12D): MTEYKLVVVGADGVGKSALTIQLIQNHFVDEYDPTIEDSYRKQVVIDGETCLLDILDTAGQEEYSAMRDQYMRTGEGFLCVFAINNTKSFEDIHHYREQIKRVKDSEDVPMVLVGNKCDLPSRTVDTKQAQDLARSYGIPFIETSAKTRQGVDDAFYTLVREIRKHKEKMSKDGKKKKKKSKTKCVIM
- experiment: GDP-GTP exchange assay, KRAS G12D
- measurement_setup: bodipy-loaded KRAS G12D 2.5 nM, GppNHp 500 uM, SOS1 150 nM; 4 hours pre-incubation, 2 hours incubation; read-out: G12D_exchange
measured_metric: IC50

Measured IC50, CC(O)c1nc2c(F)c(-c3cccc(Cl)c3Cl)c(CCC#N)cc2c2c1cc([C@H]1C[C@H]3C[C@H]3N1C(=O)C1(C)CC1)n2[C@H]1[C@H]2CN[C@@H]1C2 (stereo partly drawn) : < 100 nM

So for COC(=O)N1[C@H](C)CC[C@@H]1c1cc2c(-c3ccc(C(C)(C)O)nc3)nc3c(F)c(-c4cccc(Cl)c4Cl)c(CCC#N)cc3c2n1[C@H]1[C@H]2CN[C@@H]1C2 , the logged IC50 turned out to be < 100 nM

According to the records, this compound Cc1nc2c(F)c(-c3cccc(Cl)c3Cl)c(CCC#N)cc2c2c1cc([C@@H](C)NC(=O)c1cccnn1)n2[C@H]1[C@H]2CN[C@@H]1C2 displays IC50 of < 100 nM

###

- subject_of_test: KRAS G12D (Homo sapiens, UniProt P01116, G12D)
- experiment: GDP-GTP exchange assay, KRAS G12D
- measurement_setup: bodipy-loaded KRAS G12D 2.5 nM, GppNHp 500 uM, SOS1 150 nM; 4 hours pre-incubation, 2 hours incubation; read-out: G12D_exchange
pIC50: −log10 of the molar value.
Each entry below carries its recorded pIC50.

The cases that follow already have their pIC50 on record.
Cc1cnc(-c2nc3c(F)c(-c4cc(O)cc5ccccc45)c(CCC#N)cc3c3c2cc(C)n3[C@H]2[C@H]3CN[C@@H]2C3)cn1 (single isomer, unassigned)
> 7.00
CCOc1nc2c(F)c(-c3cc(O)cc(Cl)c3Cl)c(CCC#N)cc2c2c1cc(CN1CCN(C(C)C)CC1=O)n2[C@H]1[C@H]2CN[C@@H]1C2
> 7.00

Next:
According to the records, this compound CC(=O)N1CC[C@H](n2ncc3c(O[C@@H](C)[C@@H]4CCCN4C)nc4c(F)c(-c5cccc6cccc(C#N)c56)c(C#N)cc4c32)C[C@H]1CC#N (single isomer, unassigned) displays pIC50 of > 7.00

###

- subject_of_test: KRAS G12V mutant (Homo sapiens, UniProt P01116, G12V)
- Sequence (P01116 1-188 isoform P01116-2 G12V): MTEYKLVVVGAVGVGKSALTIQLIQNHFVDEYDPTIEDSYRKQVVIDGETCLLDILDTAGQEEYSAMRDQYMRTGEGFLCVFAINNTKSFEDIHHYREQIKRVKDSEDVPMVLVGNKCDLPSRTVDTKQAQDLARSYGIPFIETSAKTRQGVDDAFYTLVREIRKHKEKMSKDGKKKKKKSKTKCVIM
- experiment: GDP-GTP exchange assay, KRAS G12V
- measurement_setup: bodipy loaded KRAS G12V 2.5 nM; 3 hours incubation after adding GppNHp-SOS1 mixture; read-out: G12V_exchange
Form field: IC50 (one value per entry).

// sample Cc1cc2c(O[C@@H](C)[C@@H]3CCCN3C)nc3c(F)c(-c4cccc5cccc(C#N)c45)c(CCC#N)cc3c2n1[C@H]1[C@H]2CN[C@@H]1C2 (single isomer, unassigned) [Example 11] , its IC50 was < 100 nM

For this compound ( COC(=O)N1[C@@H](c2cc3c(-c4ccc(C(=O)N(C)C)nc4)nc4c(F)c(-c5cccc(Cl)c5Cl)c(CCC#N)cc4c3n2[C@H]2[C@H]3CN[C@@H]2C3)C[C@H]2C[C@H]21 [Example 48] ), measured IC50 is < 100 nM

IC50 reading for N#CCCc1cc2c(ncc3cc([C@H]4CCCN4C(=O)N4CC(F)(F)C4)n([C@H]4[C@H]5CN[C@@H]4C5)c32)c(F)c1-c1cccc(Cl)c1Cl [Example 43] : < 100 nM
